From: PubChem BioAssay (NCI)

Tested on: IGROV1 ovarian
test.summary: NCI-60 one-dose screen, 48 h
recorded.conditions: 10 µM unless noted
The panel holds about 83,000 compounds, 20% with a hit somewhere; the sample as a whole holds those more often. Active and inactive are the calls of the source. How the source made its calls: active means growth percent below 10; inactive means the rest.
Would you mind answering with one of these outcomes? y = active, n = inactive

Identify the outcome logged in this assay for the molecule shown: Cc1ccc(C2CC(c3cccc(Nc4ccncc4)c3)=NN2c2cc(Cl)cc(Cl)c2)cc1 (stereo not given)
n

Identify the outcome logged in this assay for the molecule shown: "CC[C@H](C)[C@@H]1NC(=O)[C@H](Cc2ccc(O)cc2)N(C)C(=O)[C@H](Cc2ccccc2)NC(=O)CN(C)C(=O)[C@@H]2CCCN2C(=O)[C@@H](Cc2ccccc2)N(C)C(=O)[C@H](CC(C)C)NC1=O"
y

Identify the outcome logged in this assay for the molecule shown: "CCOC(=O)Oc1c(OC)cc(C(=O)O[C@@H]2C[C@@H]3CN4CCc5c([nH]c6cc(OC)ccc56)[C@H]4C[C@@H]3[C@H](C(=O)OC)[C@H]2OC)cc1OC"
n
